tested on: SK-MEL-5 melanoma; assay: NCI tumour cell line growth inhibition, 48 h
measurementName: TGI (µM)
Record the value in µM, omitting the unit from your answer.

Prompt: Return the recorded TGI value; entry: CC(C)(C)c1ccc2c(c1)OP1(Oc3cccc4cccnc34)(O2)Oc2ccc(C(C)(C)C)cc2O1
Completion: 13.7

Prompt: Give reported TGI value for Cc1cccc(/C=N/NC(=S)Nc2ccc(Cl)cc2)n1
Completion: 8.97

Prompt: Annotate the molecule N#CNC1=NC(Cc2ccccc2)C(=O)N1CCc1c[nH]c2ccccc12 (stereo not given) with its measured TGI.
Completion: 41.7

====

tested on: COLO 205 colon; assay: NCI tumour cell line growth inhibition, 48 h
measurementName: TGI

Prompt: Answer with reported TGI of NC(C/C=C/P(=O)(O)O)C(=O)O (stereo unspecified)
Completion: > 100 µM

Prompt: Look up and report measured TGI for this entry: CN1CCN(CCCNN)CC1
Completion: > 100 µM

Prompt: Supply reported TGI belonging to this molecule: CC(C)(C)[Si](C)(C)OC1(CCc2ccccc2OS(=O)(=O)C(F)(F)F)CCCC=C1COCc1ccccc1 (stereo unspecified)
Completion: > 100 µM

Prompt: Provide only the value of recorded TGI for Cc1cc2c(cc1O)[nH]c1cc3c(cc12)C=CC(C)(C)O3
Completion: > 25 µM

Prompt: // Input: CCOC(=O)[C@]12C3C=CC(C3)C1C(=O)C1OC12 (stereo partly specified) . Output its TGI only.
Completion: > 100 µM

Prompt: Using the record for CCCCN1C=CCN(CCCC)C1 , state its measured TGI.
Completion: > 100 µM
